Listed below: protein stability index values for each entry.
- protocol summary: protein stability index of a GFP-peptide fusion (yeast GPS) (PSI 1-4); higher = more stable; sorted into four equal gates, so the index is relative within each strain
- measurement context: pdr5∆
// no unit string in output, number only

Solved entries (count: 2):
[
  {
    "sequence content": "SVAVHFQYVIDESSGTS [SMC4]",
    "measured quantity": "protein stability index",
    "assay value": 1.6
  },
  {
    "sequence content": "AQQKLKQNPGLMQNMMN [SRP54]",
    "measured quantity": "protein stability index",
    "assay value": 2.42
  }
]

Reported protein stability index for LFAFNGVARNFHFAIEQ [SIN4] : what is it?
2.8

Can you check FNSVVNLSRYPKSGIDI [MTR3] next?
2.96

* * *

- protocol summary: protein stability index of a GFP-peptide fusion (yeast GPS) (PSI 1-4); higher = more stable; sorted into four equal gates, so the index is relative within each strain
- measurement context: ubr1∆
measured quantity: protein stability index
// no unit string in output, number only

[
  {
    "sequence content": "INKMVGNRYLEKRLNLR [RPL21A]",
    "assay value": 3
  },
  {
    "sequence content": "CYAPRPSAGPHKLRESL [RPS4A]",
    "assay value": 3.07
  },
  {
    "sequence content": "IMNELYRMKGGRVTFIP [SMC3]",
    "assay value": 3.66
  },
  {
    "sequence content": "SMILGVAASIIPFPDHN [RPB2]",
    "assay value": 2.8
  },
  {
    "sequence content": "RHKNKHIQGFPTLGERL [DSN1]",
    "assay value": 3.44
  }
]

Reported protein stability index for SLLAMHKHNIMKNENAN [CDC53] : what is it?
3.05

Can you check LAVCDELGNMTMLITGQ [SIN4] next?
2.02

Can you check DQKETKKGESEKDASGK [YOR098C/NUP1] next?
3.37

Can you check GYLITPPKHTELLLTTL [SSN2] next?
1.54

* * *

- protocol summary: protein stability index of a GFP-peptide fusion (yeast GPS) (PSI 1-4); higher = more stable; sorted into four equal gates, so the index is relative within each strain
- measurement context: doa10∆
measured quantity: protein stability index

Solved entries (count: 5):
[
  {
    "sequence content": "DTKLRLEKSKNECQRLQ [YIL149C/MLP2]",
    "protein stability index": 2.57
  },
  {
    "sequence content": "ICEPKETLSIFTNVPLN [YJL039C/NUP192]",
    "protein stability index": 2.1
  },
  {
    "sequence content": "EEQEEEPDREKIKLLTQ [RPC19]",
    "protein stability index": 2.93
  },
  {
    "sequence content": "RYNRAVPDSKIRIYDLG [RPL10]",
    "protein stability index": 2.53
  },
  {
    "sequence content": "RMLEEAIDHLKAELEKQ [YIL149C/MLP2]",
    "protein stability index": 3.25
  }
]

Reported protein stability index for STVIEEFTLFMDIAERI [YGL172W/NUP49] : what is it?
2.37

Can you check KYHYKEEWLNTKDPDEQ [CSN9] next?
2.86

Can you check YRFFKKISEDPVKALNE [SNF12] next?
3.5

* * *

- protocol summary: protein stability index of a GFP-peptide fusion (yeast GPS) (PSI 1-4); higher = more stable; sorted into four equal gates, so the index is relative within each strain
- measurement context: pdr5∆
measured quantity: protein stability index

Solved entries (count: 5):
[
  {
    "sequence content": "KPELRKKVMPAIVVRQA [RPL23A]",
    "protein stability index": 2.87
  },
  {
    "sequence content": "MASNEVLVLRGTLEGHN [ASC1]",
    "protein stability index": 2.22
  },
  {
    "sequence content": "QALDISKKGKPTVNKKP [SRP72]",
    "protein stability index": 2.82
  },
  {
    "sequence content": "AVYETLISRMIFIATQL [BRR2]",
    "protein stability index": 1.55
  },
  {
    "sequence content": "LSPSDQFAPAFLNTPNN [SSN2]",
    "protein stability index": 2.23
  }
]

Reported protein stability index for LSFVDIVLSKAASALDE [SIR4] : what is it?
2.8

Can you check EDNEMLEDLFSYRNGMA [YJR042W/NUP85] next?
1.89

* * *

- protocol summary: protein stability index of a GFP-peptide fusion (yeast GPS) (PSI 1-4); higher = more stable; sorted into four equal gates, so the index is relative within each strain
- measurement context: ubr1∆
measured quantity: protein stability index
// no unit string in output, number only

[
  {
    "sequence content": "VARIPRVGGGGTGRSGQ [RPL4A]",
    "protein stability index": 2.57
  }
]

Reported protein stability index for RKLMEMENILQRCKSNA [YIL149C/MLP2] : what is it?
1.38

Can you check EVPEGVTVSIKSRIVKV [RPL9A] next?
2.26

Can you check KDENNTANDQYSSILGN [YCG1] next?
3.08

Can you check SPDSTVNRSVVVSAVGE [YAR002W/NUP60] next?
2.79

Can you check MLLLNDSVENSSNILED [SRB8] next?
2.38

Can you check KKGVRVTLDITTLTIMR [RPT4] next?
2.56

Can you check HEVEEILNELQPNARAL [SMC1] next?
3.44

Can you check NVVPYHRNTSDYYYEDA [SWI1] next?
3.08

Can you check LIGRPPLLVPGMTPCTV [FAS1] next?
2.15

Can you check NIDSSAQFTFGKAATAK [YOR098C/NUP1] next?
3.1

Can you check VKLWEEDPDQEECSGRR [YGL100W/SEH1] next?
3.37

Can you check NKLSGILADEMGLGKTL [ISW2] next?
2.68

Can you check SVTEIPLKLSGEGPFTV [YMR129W/POM152] next?
2.81

* * *

- protocol summary: protein stability index of a GFP-peptide fusion (yeast GPS) (PSI 1-4); higher = more stable; sorted into four equal gates, so the index is relative within each strain
- measurement context: pdr5∆
measured quantity: protein stability index

Solved entries (count: 3):
[
  {
    "sequence content": "STFTKHLIKCFFKITLQ [ITC1]",
    "protein stability index": 1.28
  },
  {
    "sequence content": "LQGDLTFTKKCLENARS [SIR4]",
    "protein stability index": 3.11
  },
  {
    "sequence content": "EKLTSKSLDEQLLLLSD [LRP1]",
    "protein stability index": 3.44
  }
]

Reported protein stability index for QKYWESMRIQILRRQAI [GAL11] : what is it?
2.25

Can you check SPIGFTNSPQISVTRQV [SMC2] next?
3.09

Can you check PSRKDCMEVASAFMKFS [BRR2] next?
2.78

Can you check NGSSDASSLRFGNSLSN [YDL088C/ASM4] next?
2.76

* * *

Listed below: protein stability index values for each entry.
- protocol summary: protein stability index of a GFP-peptide fusion (yeast GPS) (PSI 1-4); higher = more stable; sorted into four equal gates, so the index is relative within each strain
- measurement context: ubr1∆

Solved entries (count: 5):
[
  {
    "sequence content": "MVLRKQKRYTVKKALAK [RPL14A]",
    "assay value": 1.55
  },
  {
    "sequence content": "LRDESLTVDNLSIAIVG [PRE5]",
    "assay value": 2.93
  },
  {
    "sequence content": "LERARDVNIVNRRLVYS [YCG1]",
    "assay value": 1.66
  },
  {
    "sequence content": "KSSWRQEWLANLKLISV [SIR4]",
    "assay value": 1.46
  },
  {
    "sequence content": "IFAGAFVFQTVFDTAIT [QCR9]",
    "assay value": 1.67
  }
]

Kindly review the next sequence as well.
Reported protein stability index for NTHWGLVCPAETPEGQA [RPB2] : what is it?
1.14

* * *

Listed below: protein stability index values for each entry.
- protocol summary: protein stability index of a GFP-peptide fusion (yeast GPS) (PSI 1-4); higher = more stable; sorted into four equal gates, so the index is relative within each strain
- measurement context: doa10∆

Solved entries (count: 3):
[
  {
    "sequence content": "TDLMSIVQELLDKNLIK [RPC34]",
    "protein stability index": 3.39
  },
  {
    "sequence content": "QAQQAQQAQARLQQGRR [SNF2]",
    "protein stability index": 3.02
  },
  {
    "sequence content": "LGFTPGELRSYLKGATG [FAS1]",
    "protein stability index": 3.26
  }
]

Reported protein stability index for LNTFHFAGVASKKVTSG [RPO21] : what is it?
2.67

Can you check MLMSKIGDVDGLIVNPV [POP5] next?
2.57

Can you check AICRNHIMEPCIECQPK [HRT1] next?
2.26

Can you check STSSGKVSYAVKKPQKS [SNM1] next?
2.04

Can you check MKVEIDSFSGAKIYPGR [RPL24A] next?
3.35

Can you check KENELLFGEKSILGKFC [YCS4] next?
1.55
